System: human rhabdosarcoma cells
Assay: pRB quantification, same procedure, rhabdosarcoma cells
Format: cell-based
Conditions: Table 9, in association with SiRNA Integrin alpha 3+RGDSPC+SiRNA Integrin beta 1+SiRNA Syndecan 1 (SEQ ID NO: 31, 32, 164 to 187)
Classification field: Satisfied = pRB at or over 9; Not satisfied = pRB under 9.

Observe how each entry below is paired with its result.
Task item: Kindly determine if pRB recorded for GTPGPPSSAPTQLSATSVLYYDDSSNVILRKHRMIVKS (Non-cyclic GFR-binding peptide) [SEQ ID NO: 164] is above or exactly 9.
Reply: Satisfied

Task item: I'd appreciate it if you could say whether GTPGPPKPSSAPTQLNAISMLYFGGGGGLKKYRDMQHN (Non-cyclic GFR-binding peptide) [SEQ ID NO: 169] has pRB at least equal to 9.
Reply: Not satisfied

Task item: Given CAAAPASSSVPARLSPISILYIAAAYKQYEDM (Non-cyclic GFR-binding peptide) [SEQ ID NO: 185] , state whether its pRB is at least 9.
Reply: Not satisfied

Task item: Is the recorded value of pRB equal to or greater than 9 for this sequence? CAAPASSSVPARLSPISLLYIDAANNVVYKQYEDM (Non-cyclic GFR-binding peptide) [SEQ ID NO: 183]
Reply: Satisfied

Task item: hey, is pRB for this one >= 9? CVPTEERSVKVAKVRIKPHQGQHKEVQV (Non-cyclic GFR-binding peptide) [SEQ ID NO: 176]
Reply: Not satisfied

Attention now turns to another entry.
Task item: Say whether CGIPEPSSVPEKMSSLSILFFDENKNVVLKVYPNM (Non-cyclic GFR-binding peptide) [SEQ ID NO: 179] shows pRB of 9 or more.
Reply: Satisfied

Entry source: patent US20190290729A1
